# run_description: Intrinsic clearance in rat cryopreserved hepatocytes assessed per 10^6 cells
# Assay type: ADME, cell-based, Hepatocyte
# measurement_context: read-out: CLH
assay_readout: hepatocyte CLint (µL/min/1e6 cells)
# unit: µL/min/1e6 cells | format: bare number

Task: Recorded hepatocyte CLint of CC(C)CN1[C@H](c2ccc(/C=C/C(=O)O)cc2)c2[nH]c3ccccc3c2C[C@H]1C , please.
Output: 18

Task: Recorded hepatocyte CLint of OCCN1CCc2c([nH]c3ccccc23)C1c1ccc(Cl)cc1 (racemic) , please.
Output: 300

Task: Recorded hepatocyte CLint of C[C@@H]1Cc2c([nH]c3ccccc23)[C@@H](c2ccc(Cl)cc2)N1C[C@H](C)C(=O)O , please.
Output: 82

Task: Recorded hepatocyte CLint of O=C(O)CCN1CCc2c([nH]c3ccccc23)C1c1ccc(Cl)cc1 (racemic) , please.
Output: 29

* * *

What IC50 was measured for each of the following?
# target: Progesterone receptor (Homo sapiens, UniProt P06401)
# Sequence (P06401 whole entry): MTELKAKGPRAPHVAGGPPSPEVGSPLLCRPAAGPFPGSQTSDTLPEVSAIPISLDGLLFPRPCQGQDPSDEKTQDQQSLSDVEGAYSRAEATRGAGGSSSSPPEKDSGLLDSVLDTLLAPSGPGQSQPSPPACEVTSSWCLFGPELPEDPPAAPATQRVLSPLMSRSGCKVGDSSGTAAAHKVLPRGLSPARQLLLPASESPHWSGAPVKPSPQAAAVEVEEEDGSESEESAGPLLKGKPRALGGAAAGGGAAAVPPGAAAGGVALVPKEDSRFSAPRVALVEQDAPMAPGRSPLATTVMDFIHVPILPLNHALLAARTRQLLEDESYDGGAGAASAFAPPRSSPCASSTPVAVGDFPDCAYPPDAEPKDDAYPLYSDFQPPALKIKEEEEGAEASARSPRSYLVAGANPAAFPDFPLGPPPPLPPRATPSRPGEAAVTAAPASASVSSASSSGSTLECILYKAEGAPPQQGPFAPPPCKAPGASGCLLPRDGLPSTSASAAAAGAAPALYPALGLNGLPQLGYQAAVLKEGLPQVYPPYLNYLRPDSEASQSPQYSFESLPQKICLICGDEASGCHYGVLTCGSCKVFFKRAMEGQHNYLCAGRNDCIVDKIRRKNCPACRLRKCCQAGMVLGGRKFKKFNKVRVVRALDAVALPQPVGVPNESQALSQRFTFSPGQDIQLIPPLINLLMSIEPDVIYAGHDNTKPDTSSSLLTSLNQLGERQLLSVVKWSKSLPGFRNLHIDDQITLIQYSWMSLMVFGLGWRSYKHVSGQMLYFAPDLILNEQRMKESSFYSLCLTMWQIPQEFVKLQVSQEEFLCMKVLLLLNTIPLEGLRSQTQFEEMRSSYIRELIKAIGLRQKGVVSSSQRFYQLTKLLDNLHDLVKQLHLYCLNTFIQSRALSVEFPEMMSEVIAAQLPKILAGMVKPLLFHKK
# run_description: Agonist activity at progesterone receptor in human MCF7 cells
# Type: cell-based

Task: Recorded IC50 of C[C@@H]1Cc2c([nH]c3ccccc23)[C@@H](c2ccc(Cl)cc2)N1CCO , please.
Output: > 100 µM

Task: Recorded IC50 of O=C(O)CCN1CCc2c([nH]c3ccccc23)C1c1ccc(Cl)cc1 (racemic) , please.
Output: > 31.6 µM

Task: Recorded IC50 of C[C@@H]1Cc2c([nH]c3ccccc23)[C@@H](c2ccc(/C=C/C(=O)O)cc2)N1CC(C)(C)F , please.
Output: > 3.16 µM

Task: Recorded IC50 of C[C@@H]1Cc2c([nH]c3ccccc23)[C@@H](c2ccc(/C=C/C(=O)O)cc2)N1CCO , please.
Output: > 100 µM

Task: Recorded IC50 of CC(C)CN1[C@H](c2c(F)cc(/C=C/C(=O)O)cc2F)c2[nH]c3ccccc3c2C[C@H]1C , please.
Output: > 3.16 µM

Task: Recorded IC50 of C[C@@H]1Cc2c([nH]c3ccccc23)[C@@H](c2ccc(Cl)cc2)N1CCC(=O)O , please.
Output: > 100 µM

* * *

What log10 of IC50 was measured for each of the following?
# values: log10(IC50), units nM

Task: Notebook entry, Estrogen receptor (Homo sapiens, UniProt P03372) assay: log10 of IC50 of O=C(O)CCN1CCc2c([nH]c3ccccc23)C1c1ccc(Cl)cc1 (racemic) = ?
Output: 3.57

Task: Notebook entry, Estrogen receptor (Homo sapiens, UniProt P03372) assay: log10 of IC50 of CC(C)CN1[C@H](c2ccc(/C=C/C(=O)O)cc2)c2[nH]c3ccccc3c2C[C@H]1C = ?
Output: 0.32

Task: Notebook entry, Estrogen receptor (Homo sapiens, UniProt P03372) assay: log10 of IC50 of C[C@@H]1Cc2c([nH]c3ccccc23)[C@@H](c2ccc(Cl)cc2)N1CCO = ?
Output: 1.93

Task: Notebook entry, Estrogen receptor (Homo sapiens, UniProt P03372) assay: log10 of IC50 of C[C@@H]1Cc2c([nH]c3ccccc23)[C@@H](c2ccc(Cl)cc2)N1CCC(=O)O = ?
Output: 2.89

Task: Notebook entry, Estrogen receptor (Homo sapiens, UniProt P03372) assay: log10 of IC50 of C[C@H](CO)CN1[C@H](c2ccc(/C=C/C(=O)O)cc2)c2[nH]c3ccccc3c2C[C@H]1C = ?
Output: 1.67
